assay: Pharmacokinetics after iv and oral dosing; format: in vivo, BALB/c mice; settings: mouse, plasma; po 120 mg/kg, female BALB/c mice; read-out: t1/2z (converted)
Observed property: half-life (min)
Value expressed in min; do not type the unit.

I have this compound here, Cc1cc(C#N)cc(C)c1Oc1nc(NC2CCN(Cc3ccc(S(N)(=O)=O)cc3)CC2)nc2ccsc12 , and I need its recorded half-life. 49.2

---

test: Pharmacokinetics after iv and oral dosing; format: in vivo, BALB/c mice; conditions: BALB/c, mouse, plasma; female mice, oral doses; read-out: Oral bioavailability
Observed property: bioavailability (%)
State just the number; it will be interpreted in %.

Entry Cc1cc(C#N)cc(C)c1Oc1nc(NC2CCN(Cc3ccc(S(N)(=O)=O)cc3)CC2)nc2ccsc12 [K-5a2] : reported bioavailability = ? 8.5

---

assay: Pharmacokinetics after iv and oral dosing; assay type: in vivo, BALB/c mice; conditions: mouse, plasma; iv 2 mg/kg, female BALB/c mice
Observed property: AUC(0-t) (ng·h/mL)
Supply the numeric figure in ng·h/mL, leaving out any unit text.

Find the recorded AUC(0-t) belonging to Cc1cc(C#N)cc(C)c1Oc1nc(NC2CCN(Cc3ccc(S(N)(=O)=O)cc3)CC2)nc2ccsc12 and report it. 461

---

test: Cytotoxicity, MTT assay, MT-4 cells; assay type: cell-based; conditions: human, three days, read-out: CC50 (Mean ± SD)
Observed property: CC50 at 3 days (µM)
Only the number, expressed in µM, is required.

>  <Compound>
Cc1cc(C#N)cc(C)c1Oc1nc(Nc2ccc(C#N)cc2)nc(N)c1Br [ETR, etravirine, reference compound]

>  <Observed property>
CC50 at 3 days

>  <Observed measurement>
27.4

$$$$

For the compound Cc1cc(C#N)cc(C)c1Oc1nc(NC2CCN(Cc3ccc(S(N)(=O)=O)cc3)CC2)nc2ccsc12 , what CC50 at 3 days is on record? 26.6

---

experiment: Pharmacokinetics after iv and oral dosing; assay type: in vivo, BALB/c mice; conditions: mouse, plasma; po 60 mg/kg, female BALB/c mice; read-out: Tmax
Observed property: Tmax (min)
Please state the figure in min; there is no need to write the unit.

Returns the measured Tmax for the input compound. Input: Cc1cc(C#N)cc(C)c1Oc1nc(NC2CCN(Cc3ccc(S(N)(=O)=O)cc3)CC2)nc2ccsc12 15

---

test: Pharmacokinetics after iv and oral dosing; assay type: in vivo, BALB/c mice; conditions: mouse, plasma; po 30 mg/kg, male BALB/c mice; read-out: Tmax
Observed property: Tmax

Tmax for Cc1cc(C#N)cc(C)c1Oc1nc(NC2CCN(Cc3ccc(S(N)(=O)=O)cc3)CC2)nc2ccsc12 [K-5a2] ? 30 min

---

assay: Cytotoxicity, MTT assay, C8166 cells; format: cell-based; details: human, three days, read-out: CC50 (Mean ± SD)
CC50 at 3 days overview

>  <Molecule>
Cc1cc(C#N)cc(C)c1Oc1nc(Nc2ccc(C#N)cc2)nc(N)c1Br [ETR, etravirine, reference compound]

>  <CC50 at 3 days>
> 50 µM

$$$$

Turning now to a further record.
GET /values?readout=CC50 at 3 days&item= Cc1cc(C#N)cc(C)c1Oc1nc(NC2CCN(Cc3ccc(S(N)(=O)=O)cc3)CC2)nc2ccsc12 > 50 µM

---

In this section, each of the molecules is paired with its reported IC50.
target: CYP3A4M (Homo sapiens, UniProt P08684)
Sequence (P08684 whole entry): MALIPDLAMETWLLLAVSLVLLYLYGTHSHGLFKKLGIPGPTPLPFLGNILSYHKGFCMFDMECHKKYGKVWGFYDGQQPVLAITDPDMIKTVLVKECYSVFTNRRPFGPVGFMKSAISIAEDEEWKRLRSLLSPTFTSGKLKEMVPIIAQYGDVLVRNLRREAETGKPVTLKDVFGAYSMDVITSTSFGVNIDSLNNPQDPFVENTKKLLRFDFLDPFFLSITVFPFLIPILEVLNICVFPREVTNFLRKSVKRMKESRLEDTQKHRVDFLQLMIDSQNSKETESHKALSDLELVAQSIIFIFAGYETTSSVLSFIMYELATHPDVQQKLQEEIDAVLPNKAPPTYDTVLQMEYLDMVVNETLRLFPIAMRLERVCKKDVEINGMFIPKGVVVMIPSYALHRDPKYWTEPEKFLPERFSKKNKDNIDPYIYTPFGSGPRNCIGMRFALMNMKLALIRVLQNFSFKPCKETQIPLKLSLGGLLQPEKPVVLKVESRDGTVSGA
Numbers only here, please. The scale is µM.

>  <Molecule>
Cc1cc(C#N)cc(C)c1Oc1nc(NC2CCN(Cc3ccc(S(N)(=O)=O)cc3)CC2)nc2ccsc12

>  <Tgt>
CYP3A4M (Homo sapiens, UniProt P08684)

>  <Endpoint unit>
µM

>  <Observed measurement>
18.9

$$$$

Next molecule, please.
Any idea what IC50 came out for Cc1cc(C#N)cc(C)c1Oc1nc(Nc2ccc(C#N)cc2)nc(N)c1Br [ETR, etravirine, reference compound] on CYP3A4M (Homo sapiens, UniProt P08684)? 41.3

---

assay: Pharmacokinetics after iv and oral dosing; format: in vivo, BALB/c mice; conditions: mouse, plasma; po 60 mg/kg, female BALB/c mice
Observed property: AUC(0-t) (ng·h/mL)
Could you give me the number in ng·h/mL? Just the number is fine.

What value of AUC(0-t) has been reported for the following molecule? Cc1cc(C#N)cc(C)c1Oc1nc(NC2CCN(Cc3ccc(S(N)(=O)=O)cc3)CC2)nc2ccsc12 1420

---

test: Pharmacokinetics after iv and oral dosing; type: in vivo, BALB/c mice; settings: mouse, plasma; po 30 mg/kg, female BALB/c mice; read-out: t1/2z (converted)
Observed property: half-life (h)
Please state the figure in h; there is no need to write the unit.

Give the measured half-life of Cc1cc(C#N)cc(C)c1Oc1nc(NC2CCN(Cc3ccc(S(N)(=O)=O)cc3)CC2)nc2ccsc12 [K-5a2] . 1.09

---

test: Pharmacokinetics after iv and oral dosing; format: in vivo, BALB/c mice; details: male, BALB/c, mouse, plasma, po, 120 mg/kg, po 120 mg/kg, male BALB/c mice; read-out: Cmax
Observed property: Cmax
Answer format: value, then unit.

Need Cmax of Cc1cc(C#N)cc(C)c1Oc1nc(NC2CCN(Cc3ccc(S(N)(=O)=O)cc3)CC2)nc2ccsc12 [K-5a2] , thanks. 1680 ng/mL

---

test: Pharmacokinetics after iv and oral dosing; type: in vivo, BALB/c mice; conditions: mouse, plasma; po 30 mg/kg, female BALB/c mice; read-out: Tmax
Observed property: Tmax (min)
Quick note: give the figure in min, leave out the unit.

Quick one: Tmax for Cc1cc(C#N)cc(C)c1Oc1nc(NC2CCN(Cc3ccc(S(N)(=O)=O)cc3)CC2)nc2ccsc12 [K-5a2] ? 15

---

assay: Pharmacokinetics after iv and oral dosing; type: in vivo, BALB/c mice; conditions: mouse, plasma; po 60 mg/kg, male BALB/c mice; read-out: Tmax
Observed property: Tmax (min)
Give just the number in min; leave the unit off.

Entry under review: Cc1cc(C#N)cc(C)c1Oc1nc(NC2CCN(Cc3ccc(S(N)(=O)=O)cc3)CC2)nc2ccsc12 [K-5a2] . Reported Tmax? 30

---

experiment: Cytotoxicity, MTT assay, PBMCs; format: cell-based; details: human, PBMC, seven days, read-out: CC50 (Mean ± SD)
Observed property: CC50 at 7 days (µM)
The reply should be a number in µM, with the unit left off.

>  <Compound>
Cc1cc(C#N)cc(C)c1Oc1nc(NC2CCN(Cc3ccc(S(N)(=O)=O)cc3)CC2)nc2ccsc12 [K-5a2]

>  <CC50 at 7 days, µM>
39.7

$$$$

State the recorded CC50 at 7 days for this entry: Cc1cc(C#N)cc(C)c1Oc1nc(Nc2ccc(C#N)cc2)nc(N)c1Br [ETR, etravirine, reference compound] 34.5

---

experiment: Pharmacokinetics after iv and oral dosing; assay type: in vivo, BALB/c mice; conditions: male, BALB/c, mouse, plasma, po, 60 mg/kg, po 60 mg/kg, male BALB/c mice; read-out: Cmax
Observed property: Cmax (ng/mL)
Numeric only. Scale: ng/mL

I'd like to know its Cmax. The compound in question is Cc1cc(C#N)cc(C)c1Oc1nc(NC2CCN(Cc3ccc(S(N)(=O)=O)cc3)CC2)nc2ccsc12 [K-5a2] 749

---

test: Acute toxicity, single intragastric dose; format: in vivo; conditions: both, mouse, in vivo, po, 5000 mg/kg; single gavage dose, male and female BALB/C mice; read-out: Maximum tolerated dose
Observed property: MTD

GET /values?readout=MTD&item= Cc1cc(C#N)cc(C)c1Oc1nc(NC2CCN(Cc3ccc(S(N)(=O)=O)cc3)CC2)nc2ccsc12 > 5000 mg/kg

---

test: Pharmacokinetics after iv and oral dosing; assay type: in vivo, BALB/c mice; conditions: mouse, plasma; po 30 mg/kg, male BALB/c mice; read-out: F
Observed property: bioavailability (%)
Reply numerically in %, unit not repeated.

Return reported bioavailability; argument: Cc1cc(C#N)cc(C)c1Oc1nc(NC2CCN(Cc3ccc(S(N)(=O)=O)cc3)CC2)nc2ccsc12 [K-5a2] 7.08

---

assay: Pharmacokinetics after iv and oral dosing; assay type: in vivo, BALB/c mice; settings: mouse, plasma; po 120 mg/kg, female BALB/c mice
Observed property: AUC(0-t)
Please answer using a numeric value trailed by its unit.

Need AUC(0-t), item Cc1cc(C#N)cc(C)c1Oc1nc(NC2CCN(Cc3ccc(S(N)(=O)=O)cc3)CC2)nc2ccsc12 3580 ng·h/mL

---

assay: Pharmacokinetics after iv and oral dosing; type: in vivo, BALB/c mice; settings: mouse, plasma; po 60 mg/kg, male BALB/c mice; read-out: t1/2z (converted)
Observed property: half-life (h)
Give a bare numeral; the unit h is implied.

Fill in the blank: the reported half-life of Cc1cc(C#N)cc(C)c1Oc1nc(NC2CCN(Cc3ccc(S(N)(=O)=O)cc3)CC2)nc2ccsc12 is ____. 1.42
